Target: T1, recombinant human TGFβ1 (human, UniProt P01137 279-390)
T1 construct: mature; also called TGFbeta1
T1 sequence (P01137 279-390 limits assumed): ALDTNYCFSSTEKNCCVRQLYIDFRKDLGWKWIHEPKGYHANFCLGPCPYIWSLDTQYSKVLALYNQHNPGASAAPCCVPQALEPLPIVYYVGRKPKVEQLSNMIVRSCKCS
Assay: radioreceptor assay, inhibition of 125I-TGFβ1 binding to A549 cells; concentration of antibody combining sites
Readout type: IC50 (nM)
Numbers only, in nM.

Lookup: Quote IC50 reported for 31G9 scFv (scFv, VH-linker-VL in pCANTAB6; also called 31G9 single chain Fv) scFv: QVQLVQSGGGVVQPGRSLRLSCAASGFTFSSYGMHWVRQAPGKGLEWVAVISYDGSIKYYADSVKGRFTISRDNSKNTLYLQMNSLRAEDTAVYYCARTGEYSGYDTSGVELWGQGTTVTVSSGGGGSGGGGSGGGGSDIVMTQSPSTLSASVGDRVTITCRASQGISSWLAWYQQKPGRAPKVLIYKASTLESGVPSRFSGSGSGTDFTLTISSLQPEDFATYYCQQSYSTPWTFGQGTKLEIKR please.
Found: 30

Reference source: patent US20050049403A1
